Molecular target: T1, Carbon-terminal polyhistidine-labeled recombinant cynomolgus monkey CD73 enzyme (cynomolgus monkey, UniProt A0A2K5V5U7 1-547)
T1 chain: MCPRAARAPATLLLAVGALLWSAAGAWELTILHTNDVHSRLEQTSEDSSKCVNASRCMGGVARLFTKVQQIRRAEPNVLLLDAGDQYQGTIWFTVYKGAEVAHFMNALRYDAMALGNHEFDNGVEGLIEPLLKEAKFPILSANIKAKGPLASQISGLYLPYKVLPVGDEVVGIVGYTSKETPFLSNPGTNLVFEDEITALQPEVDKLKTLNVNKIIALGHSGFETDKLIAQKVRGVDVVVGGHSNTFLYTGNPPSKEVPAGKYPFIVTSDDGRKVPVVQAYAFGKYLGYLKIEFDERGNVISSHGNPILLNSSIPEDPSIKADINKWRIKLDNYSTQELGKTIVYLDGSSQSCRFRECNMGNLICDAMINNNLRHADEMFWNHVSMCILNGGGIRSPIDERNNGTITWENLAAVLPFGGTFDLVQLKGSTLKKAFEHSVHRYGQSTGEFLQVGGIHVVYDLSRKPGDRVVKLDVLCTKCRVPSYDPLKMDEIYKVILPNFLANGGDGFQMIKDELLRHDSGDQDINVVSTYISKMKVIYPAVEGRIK
Test: enzyme inhibition; right table
quantity.kind: pIC50
One number for each entry, as −log10 of the molar value.

Worked cases, answers included:
[
  {
    "binder": "Hu002c-11 (antibody, V domains shown) VH: QVQLVQSGAEVKKPGASVKVSCKASGYTLTSYWMHWVRQAPGQGLEWIGEINPSQGRSNYNEKFKSKVTLTVDRSTSTVYMELSSLRSEDTAVYYCARRGVSGNYFDYWGQGTLVTVSS VL: DIQMTQSPSSLSASVGDRVTITCKASQDINTYLSWFQQKPGKSPKSLIYRSNILVSGVPSRFSGSGSGQDYTLTISSLQPEDFATYYCLQYDEFPYTFGGGTKLEIK",
    "observed.measurement": 10.19
  },
  {
    "binder": "Hu001c-32 (antibody, V domains shown) VH: QVQLVQSGAEVKKPGASVKVSCKASGYTFTNYYIYWVKQRPGQRLEWIGWIYPGNLNIKYNEKFKGRSTLTADKSASTAYMELSSLRSEDTAVYYCARDDNYAWFAYWGQGTLVTVSS VL: DIQMTQSPSSLSASVGDRVTITCKASQDVSTAVAWYQQKPGKAPKLLIYWTNTRHTGVPSRFSGSGSGTDHTLTISSLQPEDFATYYCQQHYSTPFTFGQGTKLEIK",
    "observed.measurement": 9.96
  },
  {
    "binder": "mAb002c-VH-QG/VK-SG (antibody, V domains shown) VH: QVQLQQPGAELVKPGASVRLSCKASGYTLTSYWMHWVKKRPGQGLEWIGEINPSQGRSNYNEKFKSKATLTVDRSSSTVYMQLGSLTSEDSAVYYCARRGVSGNYFDYWGQGTTLTVSS VL: DIKMTQSPSSMYASLGERVTMTCKASQDINTYLSWFQQKPGKSPKTLIYRSNILVSGVPSRFSGSRSGQDYYLTITSLEYEDMGIYYCLQYDEFPYTFGGGTKLELK",
    "observed.measurement": 10.26
  },
  {
    "binder": "Hu001c-31 (antibody, V domains shown) VH: QVQLVQSGAEVKKPGASVKVSCKASGYTFTNYYIYWVRQAPGQRLEWIGWIYPGNLNIKYNEKFKGRSTLTADKSASTAYMELSSLRSEDTAVYYCARDDNYAWFAYWGQGTLVTVSS VL: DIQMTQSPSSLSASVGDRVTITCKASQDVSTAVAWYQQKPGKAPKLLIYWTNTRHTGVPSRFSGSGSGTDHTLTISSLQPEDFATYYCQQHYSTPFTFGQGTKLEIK",
    "observed.measurement": 9.55
  },
  {
    "binder": "Hu002c-14 (antibody, V domains shown) VH: QVQLVQSGAEVKKPGASVKVSCKASGYTLTSYWMHWVKKAPGQGLEWIGEINPSQGRSNYNEKFKSKVTLTVDRSTSTVYMELSSLRSEDTAVYYCARRGVSGNYFDYWGQGTLVTVSS VL: DIQMTQSPSSLSASVGDRVTITCKASQDINTYLSWFQQKPGKAPKSLIYRSNILVSGVPSRFSGSGSGQDYTLTISSLQPEDFATYYCLQYDEFPYTFGQGTKLEIK",
    "observed.measurement": 10.25
  }
]

Report pIC50 for each item below.
1. Hu002c-15 (antibody, V domains shown) VH: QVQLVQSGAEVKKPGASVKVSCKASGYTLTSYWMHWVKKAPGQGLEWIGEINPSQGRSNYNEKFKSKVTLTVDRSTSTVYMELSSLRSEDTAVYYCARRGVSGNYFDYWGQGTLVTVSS VL: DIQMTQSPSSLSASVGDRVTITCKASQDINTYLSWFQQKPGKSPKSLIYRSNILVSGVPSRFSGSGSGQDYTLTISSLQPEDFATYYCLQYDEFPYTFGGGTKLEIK
2. Hu002c-12 (antibody, V domains shown) VH: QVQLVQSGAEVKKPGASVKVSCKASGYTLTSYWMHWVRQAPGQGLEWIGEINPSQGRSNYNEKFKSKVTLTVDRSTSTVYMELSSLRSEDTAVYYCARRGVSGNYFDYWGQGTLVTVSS VL: DIQMTQSPSSLSASVGDRVTITCKASQDINTYLSWFQQKPGKSPKSLIYRSNILVSGVPSRFSGSGSGQDYTLTISSLQPEDFAIYYCLQYDEFPYTFGGGTKLEI
3. Hu001c-23 (antibody, V domains shown) VH: QVQLVQSGAEVKKPGASVKVSCKASGYTFTNYYIYWVKQRPGQGLEWIGWIYPGNLNIKYNEKFKGRVTITADKSASTAYMELSSLRSEDTAVYYCARDDNYAWFAYWGQGTLVTVSS VL: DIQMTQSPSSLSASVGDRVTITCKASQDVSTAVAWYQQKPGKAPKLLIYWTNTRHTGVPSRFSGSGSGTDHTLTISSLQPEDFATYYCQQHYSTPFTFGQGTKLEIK
4. Hu001c-30 (antibody, V domains shown) VH: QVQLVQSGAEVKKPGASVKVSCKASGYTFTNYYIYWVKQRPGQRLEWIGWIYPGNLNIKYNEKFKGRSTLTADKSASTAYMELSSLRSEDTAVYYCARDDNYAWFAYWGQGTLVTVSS VL: DIQMTQSPSSLSASVGDRVTITCKASQDVSTAVAWYQQKPGKAPKLLIYWTNTRHTGVPSRFSGSGSGTDFTLTISSLQPEDFATYYCQQHYSTPFTFGQGTKLEIK
5. mAb001c (antibody, V domains shown) VH: QVQLQQSGPELVKPGASVRISCKTSGYTFTNYYIYWVKQRPGQGLEWIGWIYPGNLNIKYNEKFKGKSTLTADKSSSTAFMQLSSLTSEDSAVYFCARDDNYAWFAYWGQGTLVTVSS VL: DIVMTQSHKFMSTSIGDRVSITCKASQDVSTAVAWYQQKPGQSPKLLIYWTNTRHTGVPDRFTGNTSGTEHTLTISSVQAEDLALYYCQQHYSTPFTFGSGTTLEIK
6. Hu001c-15 (antibody, V domains shown) VH: QVQLVQSGAEVKKPGASVKVSCKTSGYTFTNYYIYWVRQAPGQRLEWMGWIYPGNLNIKYNEKFKGRVTITADTSASTAYMELSSLRSEDTAVYYCARDDNYAWFAYWGQGTLVTVSS VL: DIQMTQSPSSLSASVGDRVTITCKASQDVSTAVAWYQQKPGKSPKLLIYWTNTRHTGVPSRFSGSGSGTDHTLTISSLQPEDFATYYCQQHYSTPFTFGQGTKLEIK

Ans:
[10.13, 10.24, 10.15, 9.88, 10.40, 10.30]
